Could you please report measured TGI for the items listed next?
- Tested on: IGROV1 ovarian
- Assay Comment: NCI tumour cell line growth inhibition, 48 h
Dear colleague, please return just the value in µM, with no unit written.

Query :: Identify measured TGI associated with Cc1ccc2c(n1)C(=O)C(Cl)=C(Nc1ccccc1C(=O)OC(C)(C)C)C2=O
Result :: 3.43

Query :: Identify measured TGI associated with COc1ccc(/C=N/Nc2ccnc3cc(Cl)ccc23)cc1Cl
Result :: 3.71

Query :: Identify measured TGI associated with CN(C)CCCOc1c2ccc(Cl)cc2nc2c1oc1ccccc12
Result :: 12

* * *

Could you please report measured TGI for the items listed next?
- Test system: A549 NSCLC
- Assay Comment: NCI tumour cell line growth inhibition, 48 h
Dear colleague, please return just the value in µM, with no unit written.

Query :: Identify measured TGI associated with CN(C)CCCOc1c2ccc(Cl)cc2nc2c1oc1ccccc12
Result :: 11.2

Query :: Identify measured TGI associated with CN1CCN(Cc2ccc(NC(=O)c3cncc(C#Cc4cnc5ccc(OCC(C)(C)O)nn45)c3)cc2C(F)(F)F)CC1
Result :: 1.09
